Assay: Toxicity in ip dosed BALB/c mouse by bliss test
Type: organism-based
Settings: in vivo

smiles.string | LD50 (mg/kg)
COc1cccc(/C=C/C(=O)c2nc3ccccc3[nH]2)c1 | 1220
O=C(/C=C/c1ccccn1)c1nc2ccccc2[nH]1 | 634
O=C(/C=C/c1cccc(Cl)c1)c1nc2ccccc2[nH]1 | 692
